Measured TGI by item
System: RXF 393 renal
Assay: NCI tumour cell line growth inhibition, 48 h
metric: TGI

O=C1OCC2=Nc3cccc4cccc(c34)N12 : > 100 µM
CC1(C)CCOC(=O)C(Cl)CC1Cl (stereo unspecified) : > 100 µM
CC(SC1=CC(=O)c2c(O)ccc(O)c2C1=O)C(=O)O (stereo unspecified) : > 64.4 µM
COc1ccc(N=Cc2ccc(N(CCC#N)CCC#N)cc2)cc1 : > 100 µM
CCOC(OC1=C(C#N)CCC1)C(CC)[Se]c1ccccc1 (stereo unspecified) : 38.7 µM
CC(=O)Oc1ccc2c(c1)CC[C@@H]1C2[C@@H](O[N+](=O)[O-])C[C@@]2(C)C1CC[C@@H]2O (stereo partly specified) : > 100 µM
CC1=Nn2c(nc3sc4c(c3c2=O)CCCC4)SC1 : > 100 µM
COC(=O)/C=C1/OC(c2ccccc2)=C(Cl)C1=O : 35.9 µM
CC[C@@]1(OC(=O)CCC(=O)O)C(=O)OCc2c1cc1n(c2=O)Cc2cc3ccccc3nc2-1 : 1.53 µM
Nc1nc(N)c2ncn(CC(CO)CC(c3ccccc3)P(=O)(O)O)c2n1 (stereo unspecified) : > 100 µM
O=C1C=C(c2cc(Br)c(O)c(Br)c2)/C(=C/c2cc(Br)c(O)c(Br)c2)O1 : 23.6 µM
